# System: PSMA-expressing LNCAP cancer xenografts
# TEST_PROTOCOL: Biodistribution of ^68Ga-labeled PSMA-targeting tracers
# Assay type: in vivo, mice
# CONDITION_INFO: 1 h post-injection
# Method: Imaging and biodistribution experiments were performed using NODSCID 1L2RγKO male mice. Mice were anesthetized by inhalation with 2% isoflurane in oxygen, and implanted subcutaneously with 1×10^7 LNCaP cells behind left shoulder. […] PET imaging experiments were conducted using Siemens Inveon micro PET/CT scanner. […] Then, a 10-min static PET imaging was performed to determined uptake in tumor and other organs. […]
PROPERTY_LABEL: Tissue (% ID/g): Tail

Here are 2 compounds together with their reported answers.
COMPOUND	TARGET_UNDER_TEST	PROPERTY_LABEL	RESULT
O=C([O-])CN1CCN(CC(=O)[O-])CCN(CC(=O)NC[C@H]2CC[C@H](C(=O)N[C@@H](Cc3c4ccccc4cc4ccccc34)C(=O)NCCCC[C@H](NC(=O)N[C@@H](CCC(=O)O)C(=O)O)C(=O)O)CC2)CCN(CC(=O)[O-])CC1.[68Ga+3] [^68Ga-HTK03041]	PSMA-expressing LNCAP cancer xenografts	Tissue (% ID/g): Tail	1.36
O=C([O-])CN1CCN(CC(=O)[O-])CCN(CC(=O)NC[C@H]2CC[C@H](C(=O)N[C@@H](Cc3ccc4cc5ccccc5cc4c3)C(=O)NCCCC[C@H](NC(=O)N[C@@H](CCC(=O)O)C(=O)O)C(=O)O)CC2)CCN(CC(=O)[O-])CC1.[68Ga+3] [^68Ga-HTK03027]	PSMA-expressing LNCAP cancer xenografts	Tissue (% ID/g): Tail	0.98

(P) CCCCCC[C@H](NC(=O)[C@H]1CC[C@H](CNC(=O)CN2CCN(CC(=O)[O-])CCN(CC(=O)[O-])CCN(CC(=O)[O-])CC2)CC1)C(=O)NCCCC[C@H](NC(=O)N[C@@H](CCC(=O)O)C(=O)O)C(=O)O.[68Ga+3] [^68Ga-HTK03026]
(Q) O=C([O-])CN1CCN(CC(=O)[O-])CCN(CC(=O)NC[C@H]2CC[C@H](C(=O)N[C@@H](Cc3ccc4ccc5cccc6ccc3c4c56)C(=O)NCCCC[C@H](NC(=O)N[C@@H](CCC(=O)O)C(=O)O)C(=O)O)CC2)CCN(CC(=O)[O-])CC1.[68Ga+3] [^68Ga-HTK03029]
Exercise: Given P and Q , report the one with the higher recorded Tissue (% ID/g): Tail. Refer to your chosen entry by its label in the reply.
Key: Q
(Q: 2.18 % ID/g, P: 0.90 % ID/g)

Where these numbers come from: patent US12472272B2
